target: UniProtKB Q01827; assay: Displacement of [3H]DTBZ from VMAT2 dihydrotetrabenazine binding site in rat brain synaptic vesicle by scintillation counting; assay type: tissue-based
Form field: log10 of Ki (one value per entry).
Answers are given as log10 of Ki in nM.

# lookup: log10 of Ki of `CN1[C@H](CCc2ccccc2)CC[C@H]1CCc1ccccc1`
3.60

# lookup: log10 of Ki of `OC[C@@H](c1ccccc1)N1[C@@H](CCc2ccccc2)CC[C@@H]1CCc1ccccc1`
3.75

# lookup: log10 of Ki of `OC[C@@H](c1ccccc1)N1[C@H](CCc2ccccc2)CC[C@@H]1CCc1ccccc1`
3.44

# lookup: log10 of Ki of `c1ccc(CC[C@@H]2CC[C@@H](CCc3ccccc3)N2)cc1`
3.53

# lookup: log10 of Ki of `c1ccc(CCC[C@@H]2CC[C@H](CCCc3ccccc3)N2)cc1`
2.43

# lookup: log10 of Ki of `c1ccc(CC[C@@H]2CC[C@H](CCc3ccccc3)N2)cc1`
3.49

# lookup: log10 of Ki of `c1ccc(CC[C@H]2CC[C@H](CCc3ccccc3)N2)cc1`
3.12

# lookup: log10 of Ki of `CN1[C@H](CCCc2ccccc2)CC[C@@H]1CCCc1ccccc1`
3.44

====

Form field: pKi (one value per entry).
target: Synaptic vesicular amine transporter (Rattus norvegicus, UniProt Q01827); assay: Displacement of [3H]DTBZ from VMAT2 dihydrotetrabenazine binding site in rat brain synaptic vesicle by scintillation counting; type: tissue-based
Lab note — pKi values are minus log10 of concentrations in M.

>>> val("CN1[C@@H](Cc2ccccc2)CC[C@H]1Cc1ccccc1")
5.61
>>> val("c1ccc(C[C@H]2CC[C@@H](Cc3ccccc3)N2)cc1")
5.79
>>> val("OC[C@H](c1ccccc1)N1[C@H](CCc2ccccc2)CC[C@H]1CCc1ccccc1")
5.30
>>> val("OC[C@H](c1ccccc1)N1[C@H](CCc2ccccc2)CC[C@@H]1CCc1ccccc1")
5.36
>>> val("CN1[C@H](CCc2ccccc2)CC[C@@H]1CCc1ccccc1")
5.06

Next compound, please.
# lookup: pKi of `CN1[C@@H](CCc2ccccc2)CC[C@@H]1CCc1ccccc1`
4.84

====

Form field: pKi (one value per entry).
target: Synaptic vesicular amine transporter (Rattus norvegicus, UniProt Q01827); assay: Inhibition of [3H]dopamine uptake at VMAT2 in rat brain synaptic vesicle by liquid scintillation spectroscopy; type: tissue-based
Lab note — pKi values are minus log10 of concentrations in M.

>>> val("CN1[C@H](CCc2ccccc2)CC[C@@H]1CCc1ccccc1")
6.57

# lookup: pKi of `c1ccc(C[C@H]2CC[C@@H](Cc3ccccc3)N2)cc1`
8.03

# lookup: pKi of `OC[C@@H](c1ccccc1)N1[C@@H](CCc2ccccc2)CC[C@@H]1CCc1ccccc1`
6.57

====

biological target: Synaptic vesicular amine transporter (Rattus norvegicus) (UniProt Q01827); test: Ratio of Ki for displacement of [3H]DTBZ from VMAT2 dihydrotetrabenazine binding site in rat brain synaptic vesicle to Ki for inhibition of [3H]dopamine uptake at VMAT2 in rat brain synaptic vesicle; format: tissue-based
Sequence (Q01827 whole entry): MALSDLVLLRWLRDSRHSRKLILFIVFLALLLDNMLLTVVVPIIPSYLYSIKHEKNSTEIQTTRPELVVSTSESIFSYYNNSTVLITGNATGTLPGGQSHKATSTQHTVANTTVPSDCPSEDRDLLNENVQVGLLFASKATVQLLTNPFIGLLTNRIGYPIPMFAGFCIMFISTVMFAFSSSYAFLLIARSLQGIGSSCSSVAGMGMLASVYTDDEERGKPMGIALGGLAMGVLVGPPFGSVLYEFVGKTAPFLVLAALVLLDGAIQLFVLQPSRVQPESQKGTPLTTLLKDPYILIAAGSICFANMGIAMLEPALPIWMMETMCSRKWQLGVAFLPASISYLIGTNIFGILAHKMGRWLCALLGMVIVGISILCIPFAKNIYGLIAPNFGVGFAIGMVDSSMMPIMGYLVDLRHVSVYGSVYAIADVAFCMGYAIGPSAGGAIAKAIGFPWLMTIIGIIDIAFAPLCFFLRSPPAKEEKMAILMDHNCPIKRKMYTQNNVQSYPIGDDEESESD
assay-readout: Ratio Ki
// no unit, no text: just the number

>>> val("CN1[C@H](CCc2ccccc2)CC[C@H]1CCc1ccccc1")
33.1

# lookup: Ratio Ki of `c1ccc(CC[C@@H]2CC[C@H](CCc3ccccc3)N2)cc1`
106

# lookup: Ratio Ki of `OC[C@@H](c1ccccc1)N1[C@H](CCc2ccccc2)CC[C@@H]1CCc1ccccc1`
19.6

# lookup: Ratio Ki of `OC[C@@H](c1ccccc1)N1[C@@H](CCc2ccccc2)CC[C@@H]1CCc1ccccc1`
20.7
